All figures here come from patent US12685735B2.

- targetOrTestSystem: BRG-1 (Homo sapiens)
- Sequence (P51532 whole entry): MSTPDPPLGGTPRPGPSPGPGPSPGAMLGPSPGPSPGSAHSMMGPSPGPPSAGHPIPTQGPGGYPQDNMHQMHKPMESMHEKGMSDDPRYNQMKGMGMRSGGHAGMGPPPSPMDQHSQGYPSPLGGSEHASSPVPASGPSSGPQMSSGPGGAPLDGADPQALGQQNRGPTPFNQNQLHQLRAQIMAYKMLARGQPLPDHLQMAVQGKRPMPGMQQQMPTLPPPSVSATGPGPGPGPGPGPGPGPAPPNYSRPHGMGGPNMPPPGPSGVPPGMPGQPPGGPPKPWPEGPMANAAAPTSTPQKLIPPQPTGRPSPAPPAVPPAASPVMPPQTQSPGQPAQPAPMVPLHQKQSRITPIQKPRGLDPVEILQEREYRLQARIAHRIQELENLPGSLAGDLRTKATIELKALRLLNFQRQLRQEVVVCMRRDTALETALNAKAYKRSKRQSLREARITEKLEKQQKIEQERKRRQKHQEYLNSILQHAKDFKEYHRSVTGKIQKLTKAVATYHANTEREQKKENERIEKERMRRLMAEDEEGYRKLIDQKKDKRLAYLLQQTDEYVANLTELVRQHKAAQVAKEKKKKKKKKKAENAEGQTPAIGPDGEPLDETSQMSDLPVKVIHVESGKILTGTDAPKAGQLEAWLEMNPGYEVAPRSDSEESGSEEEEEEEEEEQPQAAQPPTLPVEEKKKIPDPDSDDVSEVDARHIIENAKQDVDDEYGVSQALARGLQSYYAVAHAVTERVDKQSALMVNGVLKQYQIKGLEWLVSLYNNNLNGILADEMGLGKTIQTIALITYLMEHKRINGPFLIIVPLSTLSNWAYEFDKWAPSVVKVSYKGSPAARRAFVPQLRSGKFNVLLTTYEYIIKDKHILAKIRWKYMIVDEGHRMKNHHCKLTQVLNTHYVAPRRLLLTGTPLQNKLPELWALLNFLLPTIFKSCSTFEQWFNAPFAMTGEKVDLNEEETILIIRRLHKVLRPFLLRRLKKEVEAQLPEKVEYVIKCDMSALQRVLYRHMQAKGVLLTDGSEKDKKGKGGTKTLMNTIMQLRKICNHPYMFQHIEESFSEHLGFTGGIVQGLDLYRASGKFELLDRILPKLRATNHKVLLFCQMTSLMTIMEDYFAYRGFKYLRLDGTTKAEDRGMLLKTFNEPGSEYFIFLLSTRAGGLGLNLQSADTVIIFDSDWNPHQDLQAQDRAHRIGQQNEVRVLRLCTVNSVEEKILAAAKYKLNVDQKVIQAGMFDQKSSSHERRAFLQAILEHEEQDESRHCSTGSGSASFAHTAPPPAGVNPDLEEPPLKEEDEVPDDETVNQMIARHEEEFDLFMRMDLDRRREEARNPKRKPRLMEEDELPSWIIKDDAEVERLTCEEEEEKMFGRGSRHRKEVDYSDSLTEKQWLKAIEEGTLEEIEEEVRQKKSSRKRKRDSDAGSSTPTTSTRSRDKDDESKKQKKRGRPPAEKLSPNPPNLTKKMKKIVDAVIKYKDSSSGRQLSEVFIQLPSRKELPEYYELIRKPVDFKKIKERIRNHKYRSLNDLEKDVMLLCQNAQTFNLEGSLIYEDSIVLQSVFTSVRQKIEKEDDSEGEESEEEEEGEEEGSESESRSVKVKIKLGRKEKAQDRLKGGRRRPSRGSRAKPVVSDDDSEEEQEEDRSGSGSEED
- methodNotes: ATPase catalytic activity assay of BRG-1 (ADP-Glo)
- Format: biochemical
- appliedConditions: ATPase catalytic activity, ADP-Glo; read-out: BRG1 Max % Inhibition
# Emax values compiled below

As a guide, the following entries are already answered.
| compound | measuredEndpoint | recordedResult |
| --- | --- | --- |
| Cc1cc(-c2cccc(-c3csc(NC(=O)CNC(=O)c4ccc5c(c4)[C@](C)(C#N)CC5)n3)n2)ncn1 [Compound 267] | Emax | > 95% |
| Cc1nccc(-c2cccc(-c3csc(NC(=O)CNC(=O)c4ccc5c(c4)[C@@](C)(CO)CC5)n3)n2)n1 [Compound 214] | Emax | > 80% |
| C[C@@H]1CN(c2cccc(-c3csc(NC(=O)CNC(=O)c4ccc5c(c4)[C@@H]([C@@H](C)O)CC5)n3)n2)C[C@H](C)O1 [Compound 142] | Emax | > 80% |

*Q* Requested read-out: Emax. Entry: C[C@@H]1CN(c2cccc(-c3csc(NC(=O)CNC(=O)c4cccc5c4OCC[C@]5(C)C#N)n3)c2)C[C@H](C)O1 [Compound 148]
*A* > 30%

*Q* Please answer likewise for C[C@@]1(C#N)COCc2ccc(C(=O)NCC(=O)Nc3nc(-c4cccc([C@@H]5CC5(F)F)c4)cs3)cc21 [Compound 388]
*A* > 95%

*Q* What do we get for CC(C)(CN)c1cccc(C(=O)NCC(=O)Nc2nc(-c3cccc(-c4cc(CO)cc(C(F)(F)F)c4)c3)cs2)c1 [Compound 53] ?
*A* > 70%

*Q* One more compound: Cc1nccc(-c2cccc(-c3csc(NC(=O)CNC(=O)c4cccc(S(=O)(=O)C(C)C)c4)n3)c2)n1 [Compound 13]
*A* > 95%
